Target: human alpha4,beta3,delta GABAA receptor (Homo sapiens, UniProt P28472+P48169)
Sequence (P48169 36-554): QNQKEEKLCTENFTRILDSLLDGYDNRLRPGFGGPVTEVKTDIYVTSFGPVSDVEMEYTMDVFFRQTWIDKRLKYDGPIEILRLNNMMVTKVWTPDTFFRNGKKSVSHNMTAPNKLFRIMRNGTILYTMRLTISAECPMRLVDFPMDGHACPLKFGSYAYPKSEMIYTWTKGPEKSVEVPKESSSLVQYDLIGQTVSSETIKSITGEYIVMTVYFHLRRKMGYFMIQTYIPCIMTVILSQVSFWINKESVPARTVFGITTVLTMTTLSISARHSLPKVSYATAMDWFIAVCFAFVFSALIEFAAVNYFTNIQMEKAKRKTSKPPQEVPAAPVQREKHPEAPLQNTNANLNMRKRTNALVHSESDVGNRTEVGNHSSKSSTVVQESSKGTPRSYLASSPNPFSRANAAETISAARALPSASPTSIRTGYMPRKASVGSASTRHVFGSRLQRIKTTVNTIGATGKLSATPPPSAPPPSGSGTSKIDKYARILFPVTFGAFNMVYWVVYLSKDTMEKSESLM
Sequence (P28472 26-473): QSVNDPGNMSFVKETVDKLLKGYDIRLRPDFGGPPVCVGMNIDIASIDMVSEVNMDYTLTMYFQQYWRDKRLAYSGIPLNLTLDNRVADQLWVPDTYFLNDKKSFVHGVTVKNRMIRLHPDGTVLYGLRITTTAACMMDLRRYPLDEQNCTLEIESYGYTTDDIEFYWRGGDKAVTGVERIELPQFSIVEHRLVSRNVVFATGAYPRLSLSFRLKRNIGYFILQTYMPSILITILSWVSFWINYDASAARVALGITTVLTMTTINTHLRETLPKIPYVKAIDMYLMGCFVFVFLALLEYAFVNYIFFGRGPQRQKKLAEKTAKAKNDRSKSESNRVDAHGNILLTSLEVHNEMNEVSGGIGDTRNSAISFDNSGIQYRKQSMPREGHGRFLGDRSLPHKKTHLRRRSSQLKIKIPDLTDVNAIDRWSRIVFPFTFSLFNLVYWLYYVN
Sequence (O14764 17-452 partner limits assumed): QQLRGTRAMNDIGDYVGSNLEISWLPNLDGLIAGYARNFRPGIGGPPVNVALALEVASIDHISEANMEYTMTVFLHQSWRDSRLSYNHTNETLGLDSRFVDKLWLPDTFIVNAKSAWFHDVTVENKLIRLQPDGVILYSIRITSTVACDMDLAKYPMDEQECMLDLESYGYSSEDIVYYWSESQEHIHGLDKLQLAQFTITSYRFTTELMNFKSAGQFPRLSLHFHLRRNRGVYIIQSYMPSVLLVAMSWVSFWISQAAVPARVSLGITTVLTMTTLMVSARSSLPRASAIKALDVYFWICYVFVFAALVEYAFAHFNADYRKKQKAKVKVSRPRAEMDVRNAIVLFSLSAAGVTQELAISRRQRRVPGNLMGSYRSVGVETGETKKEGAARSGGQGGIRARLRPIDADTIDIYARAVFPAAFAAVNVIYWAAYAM
Assay: Patch-clamp (Dynaflow) current response in HEK-293 cells expressing the human alpha4,beta3,delta GABAA receptor
Conditions: read-out: EC50, THDOC enhancement of GABA mediated current; 3 μM GABA
measurement.label: pEC50
Scale for pEC50: -log10 of concentration given in mol/L; no unit attached.

Prompt line: Any idea what its pEC50 is? The compound is C[C@]12CC[C@@H](O)C[C@H]1CC[C@@H]1[C@@H]2CC[C@]2(C)[C@@H](C(=O)CO)CC[C@@H]12 [THDOC, Tetrahydrodeoxycorticosterone]
Response line: 7.33
